Measured values drawn from patent US10787413B2 for this set.

IC50 values by entry
Tested on: PC3 prostate cancer cell
Experiment: MTT cell viability assay, PC3 prostate cancer cell
Format: cell-based
Conditions: PC-3, treated 24 hours; read-out: IC50 24 hours
Procedure: Cell viability was evaluated by measuring the reduction in MTT to yield blue formazan. Cells were cultured in 96-well plates, allowed to attach overnight, and then treated with compounds. After treatment, MTT solution (1 mg/ml) was added to each well, and plates were incubated for another 4 h. Medium were removed, blue formazan was dissolved in DMSO, and the absorbance was read at 570 nm^20.

Known IC50 results, listed for orientation:
COc1cc(/C=C/C(=O)C(C)(C)C(=O)/C=C/c2ccc(OC(=O)C(C)(CO)CO)c(OC)c2)ccc1OC(=O)C(C)(CO)CO [Compound 35a] :: 3.49 µM
CCC(CO)(CO)C(=O)Oc1ccc(/C=C/C(=O)/C=C(O)/C=C/c2ccc(OC(=O)C(CC)(CO)CO)c(OC)c2)cc1OC [Compound 22a] :: 6.91 µM

Moving on to another compound below.
// IC50 value for `CCc1cc(/C=C/C(=O)CC(=O)/C=C/c2cc(CC)c(OC(=O)C(C)(CO)CO)c(CC)c2)cc(CC)c1OC(=O)C(C)(CO)CO` : 19.9 µM
